B1: ANKRD9 (parent)
chain: LLEDMRASEAFHWDERGRAAAYSP

Variants of: B1
Experiment: protein stability index of a GFP-peptide fusion (GPS, HEK-293T) (PSI 1-6); higher = more stable;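 further: lentivirally expressed fusions sorted by FACS into six bins by GFP to DsRed ratio, PSI derived from sequencing read proportions per bin multiplied by bin number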
Conditions: c terminus: a fixed tail appended
property: protein stability index
API note: the answer field is a bare number with no unit suffix.

M5V
3.77
R16G
1.88
A10N
1.54

Next item in the queue.
Ask: Which protein stability index is reported for this variant? "A20R"
Result: 1.1

Source: the supplement of paper PMC10567573
